assay_target: T1, 4H570-AA
T1 chain: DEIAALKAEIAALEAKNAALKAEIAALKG
assay_text: two-hybrid library CCmax;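 also: natural log of median RNA to DNA barcode read ratio; higher means stronger binding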
experimental_setup: mean of both orientations
Quick rule for you: interaction score at 0.4 or higher means rule met, lower means rule not met.

Request: Assess whether reported interaction score for DKNAALEAKIAALKAENAALEAEIAALKG [4H3410-AA] sits at 0.4 or higher.
Response: rule met

Request: Assess whether reported interaction score for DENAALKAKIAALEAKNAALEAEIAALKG [4H1842-AA] sits at 0.4 or higher.
Response: rule met

Request: Assess whether reported interaction score for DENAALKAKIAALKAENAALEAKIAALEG [4H1877-AA] sits at 0.4 or higher.
Response: rule met

Request: Assess whether reported interaction score for DKNAALEAEIAALEAKNAALKAEIAALKG [4H3130-AA] sits at 0.4 or higher.
Response: rule not met

Request: Assess whether reported interaction score for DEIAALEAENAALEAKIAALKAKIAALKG [4H174-AA] sits at 0.4 or higher.
Response: rule met

Request: Assess whether reported interaction score for DKIAALKAENAALEAEIAALKAEIAALKG [4H2698-AA] sits at 0.4 or higher.
Response: rule not met

Request: Assess whether reported interaction score for DKNAALEAEIAALEAKIAALKAKNAALKG [4H3120-AA] sits at 0.4 or higher.
Response: rule not met

Request: Assess whether reported interaction score for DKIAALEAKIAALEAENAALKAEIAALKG [4H2330-AA] sits at 0.4 or higher.
Response: rule met

Request: Assess whether reported interaction score for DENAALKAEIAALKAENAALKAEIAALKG [4H1626-AA] sits at 0.4 or higher.
Response: rule not met

Request: Assess whether reported interaction score for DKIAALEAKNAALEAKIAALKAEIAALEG [4H2473-AA] sits at 0.4 or higher.
Response: rule met

Request: Assess whether reported interaction score for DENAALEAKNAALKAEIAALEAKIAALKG [4H1478-AA] sits at 0.4 or higher.
Response: rule not met

Request: Assess whether reported interaction score for DKNAALEAKIAALEAKNAALEAKIAALEG [4H3381-AA] sits at 0.4 or higher.
Response: rule not met
